Data provenance is patent US10517889B2.

Listed next: entries and their corresponding % inhibition of SMAD7 mRNA expression.
System: murine Smad7 mRNA
assay procedure: Dose-dependent inhibition of murine Smad7 mRNA in bEND cells, electroporation (Example 5, Study 2)
Assay type: cell-based, mouse
cond: 6.67 μM, electroporation, approximately 16 hours
Answer with a number only, understood to be in %.

Ask: Which % inhibition of SMAD7 mRNA expression value is on record for 736697 (antisense GTCGCCCCTTCTCCCCGCAGC; chemistry not fully specified) [compound 736697] ?
Result: 0

Ask: Which % inhibition of SMAD7 mRNA expression value is on record for 830037 (antisense CTATTGGCTGATCTGG; 3-10-3 cEt gapmer, further chemistry not given here) [compound 830037] ?
Result: 0

Ask: Which % inhibition of SMAD7 mRNA expression value is on record for 830025 (antisense TTTGTAAATCGAAAGC; 3-10-3 cEt gapmer, further chemistry not given here) [compound 830025] ?
Result: 67

Ask: Which % inhibition of SMAD7 mRNA expression value is on record for 790615 (CCAATGAGAATGCTTC; 3-10-3 cEt gapmer, further chemistry not given here) [compound 790615] ?
Result: 47

Ask: Which % inhibition of SMAD7 mRNA expression value is on record for 798781 (CGTAAGATTCACAGCA; 3-10-3 cEt gapmer, further chemistry not given here) [compound 798781] ?
Result: 33

Ask: Which % inhibition of SMAD7 mRNA expression value is on record for 830121 (AGAATCAAGCCCTGGC; 3-10-3 cEt gapmer, further chemistry not given here) [compound 830121] ?
Result: 17

###

Tested on: human SMAD7 mRNA
assay procedure: Dose-dependent inhibition of human SMAD7 mRNA expression in A431 cells, oligonucleotide added without transfection (Example 5, Study 1)
Type: cell-based
cond: 6.67 μM, approximately 48 hours
Rule: % inhibition of SMAD7 mRNA expression under 50% gives -1, otherwise 1.

Completed entries (count: 5):
1) 736697 (antisense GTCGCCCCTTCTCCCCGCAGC; chemistry not fully specified) [compound 736697] = -1
2) 830121 (AGAATCAAGCCCTGGC; 3-10-3 cEt gapmer, further chemistry not given here) [compound 830121] = -1
3) 790615 (CCAATGAGAATGCTTC; 3-10-3 cEt gapmer, further chemistry not given here) [compound 790615] = 1
4) 830037 (antisense CTATTGGCTGATCTGG; 3-10-3 cEt gapmer, further chemistry not given here) [compound 830037] = 1
5) 798781 (CGTAAGATTCACAGCA; 3-10-3 cEt gapmer, further chemistry not given here) [compound 798781] = 1

Then this substance:
Ask: Does the substance 830025 (antisense TTTGTAAATCGAAAGC; 3-10-3 cEt gapmer, further chemistry not given here) [compound 830025] have recorded % inhibition of SMAD7 mRNA expression that is 50% or more?
Result: 1

###

Tested on: human SMAD7 mRNA
assay procedure: Antisense inhibition of human SMAD7 mRNA expression in Hep3B cells by 5-10-5 MOE gapmers, single concentration, electroporation, RT-PCR (Example 1, Study 1 and 2)
Format: cell-based
cond: electroporation, 15,000 nM antisense oligonucleotide (Study 2), 5-10-5 MOE gapmers targeting SEQ ID NO: 1 and 2
Protocol: Antisense oligonucleotides were designed to target human SMAD7 mRNA and were tested for their effects on SMAD7 mRNA expression in vitro. […] After a treatment period of approximately 24 hours, RNA was isolated from the cells and SMAD7 mRNA levels were measured by quantitative real-time PCR. […] SMAD7 mRNA levels were adjusted according to total RNA content, as measured by RIBOGREEN®. […]
Strand notation (5' to 3'): a small letter for the sugar, then the base; units joined by * are phosphorothioate-linked, units joined directly phosphodiester-linked; [ ] holds rarer units or linkages, { } end groups; capitals alone tell only the bases. e = 2'-O-(2-methoxyethyl) (MOE); [5mC] = 5-methylcytosine; d = 2'-deoxy (DNA)
measurement name: % inhibition of SMAD7 mRNA expression (%)
Answer with a number only, understood to be in %.

Observe how each entry below is paired with its result.
1. 771825 (antisense e[5mC]*eT*e[5mC]*eT*e[5mC]*dA*dT*dT*dT*d[5mC]*dT*dG*dG*dA*dA*e[5mC]*e[5mC]*e[5mC]*eA*e[5mC]) [compound 771825] = 76
2. 771544 (antisense eA*eA*eA*eA*e[5mC]*d[5mC]*d[5mC]*d[5mC]*d[5mC]*dA*dA*d[5mC]*dA*dA*dT*eT*e[5mC]*eT*eT*eT) [compound 771544] = 0
3. 771690 (antisense e[5mC]*e[5mC]*eT*eA*eG*dT*dT*d[5mC]*dG*d[5mC]*dA*dG*dA*dG*dT*e[5mC]*eG*eG*e[5mC]*eT) [compound 771690] = 43

Ask: Which % inhibition of SMAD7 mRNA expression value is on record for 771833 (antisense eT*eT*eA*eA*eA*dG*dA*dA*dA*dA*dT*dG*dG*d[5mC]*d[5mC]*eT*eA*e[5mC]*eA*eT) [compound 771833] ?
Result: 21

Ask: Which % inhibition of SMAD7 mRNA expression value is on record for 483664 (antisense eT*eG*e[5mC]*eT*e[5mC]*dA*dG*d[5mC]*dT*d[5mC]*dA*d[5mC]*dG*d[5mC]*dT*e[5mC]*eT*eG*eT*e[5mC]) [compound 483664] ?
Result: 36

Ask: Which % inhibition of SMAD7 mRNA expression value is on record for 771793 (antisense eA*eA*eG*eT*e[5mC]*d[5mC]*d[5mC]*dT*dA*dA*d[5mC]*dG*dA*d[5mC]*d[5mC]*eA*eG*eG*e[5mC]*e[5mC]) [compound 771793] ?
Result: 58

Ask: Which % inhibition of SMAD7 mRNA expression value is on record for 771728 (antisense eA*eA*e[5mC]*eT*eT*dT*dT*d[5mC]*dT*d[5mC]*d[5mC]*d[5mC]*d[5mC]*d[5mC]*dT*eT*eG*eG*eA*eA) [compound 771728] ?
Result: 1

Ask: Which % inhibition of SMAD7 mRNA expression value is on record for 771896 (antisense eG*eG*eG*e[5mC]*e[5mC]*d[5mC]*d[5mC]*d[5mC]*dT*dT*d[5mC]*dT*dG*d[5mC]*d[5mC]*eT*eT*e[5mC]*eA*eT) [compound 771896] ?
Result: 0

Ask: Which % inhibition of SMAD7 mRNA expression value is on record for 771754 (antisense e[5mC]*e[5mC]*e[5mC]*eT*e[5mC]*dA*dG*dG*dT*dA*d[5mC]*dT*d[5mC]*dT*dG*e[5mC]*eA*e[5mC]*eA*eG) [compound 771754] ?
Result: 45

Ask: Which % inhibition of SMAD7 mRNA expression value is on record for 771722 (antisense eA*eG*eA*eG*eG*dG*dA*dG*d[5mC]*dT*d[5mC]*d[5mC]*dA*dG*dG*eA*eA*eT*eT*eT) [compound 771722] ?
Result: 10

Ask: Which % inhibition of SMAD7 mRNA expression value is on record for 771522 (antisense eG*e[5mC]*eA*eT*eG*dA*dA*dA*dA*dG*d[5mC]*dA*dA*dG*d[5mC]*eA*e[5mC]*eT*e[5mC]*eA) [compound 771522] ?
Result: 29

###

assay procedure: Hematology assays after oral gavage in CD-1 mice (Example 7)
Assay type: in vivo
cond: 500 mg/kg oral gavage once daily for 4 weeks
Listed next: entries and their corresponding platelets.

Observe how each entry below is paired with its result.
1. 790615 (CCAATGAGAATGCTTC; 3-10-3 cEt gapmer, further chemistry not given here) [compound 790615] = 1033 10^3/μL
2. 798781 (CGTAAGATTCACAGCA; 3-10-3 cEt gapmer, further chemistry not given here) [compound 798781] = 1099 10^3/μL
3. 830025 (antisense TTTGTAAATCGAAAGC; 3-10-3 cEt gapmer, further chemistry not given here) [compound 830025] = 1236 10^3/μL
4. 830037 (antisense CTATTGGCTGATCTGG; 3-10-3 cEt gapmer, further chemistry not given here) [compound 830037] = 1122 10^3/μL
5. 829994 (GGAGGCAGGGCCGCGA; 3-10-3 cEt gapmer, further chemistry not given here) [compound 829994] = 1219 10^3/μL

Now for a further substance.
Ask: Which platelets value is on record for 830121 (AGAATCAAGCCCTGGC; 3-10-3 cEt gapmer, further chemistry not given here) [compound 830121] ?
Result: 1170 10^3/μL

###

System: human SMAD7 mRNA
assay procedure: Antisense inhibition of human SMAD7 mRNA expression in Hep3B cells by 3-10-3 cEt gapmers, 10,000 nM, electroporation (Example 2)
Format: cell-based
cond: Hep3B cells, electroporation with 10,000 nM antisense oligonucleotide, approximately 24 hours, SMAD7 mRNA by RT-PCR (RTS5062), relative to untreated control cells
Strand notation (5' to 3'): a small letter for the sugar, then the base; units joined by * are phosphorothioate-linked, units joined directly phosphodiester-linked; [ ] holds rarer units or linkages, { } end groups; capitals alone tell only the bases. k = constrained ethyl (cEt); [5mC] = 5-methylcytosine; d = 2'-deoxy (DNA)
measurement name: % Inhibition (%)
Answer with a number only, understood to be in %.

1) 798903 (kA*kA*kG*dA*dT*dG*dA*d[5mC]*d[5mC]*dT*d[5mC]*dT*dA*kG*k[5mC]*k[5mC]; antisense) [compound 798903] = 48
2) 799256 (antisense k[5mC]*k[5mC]*kA*dA*dA*dA*d[5mC]*dT*d[5mC]*d[5mC]*dA*dA*dA*kG*kG*kT) [compound 799256] = 0
3) 830024 (antisense kT*kG*kT*dA*dA*dA*dT*d[5mC]*dG*dA*dA*dA*dG*k[5mC]*kA*kA) [compound 830024] = 40
4) 800107 (antisense kA*kA*kT*d[5mC]*dT*dA*dG*dA*dA*dA*dA*d[5mC]*dA*k[5mC]*kA*kT) [compound 800107] = 0
5) 830068 (kG*kT*kG*dA*dA*dA*dT*dG*dG*dT*dG*d[5mC]*dT*k[5mC]*kT*kG; antisense) [compound 830068] = 39
6) 799257 (antisense k[5mC]*k[5mC]*k[5mC]*d[5mC]*dA*dA*dA*dA*d[5mC]*dT*d[5mC]*d[5mC]*dA*kA*kA*kG) [compound 799257] = 27

Now for a further substance.
Ask: Which % Inhibition value is on record for 830141 (antisense kG*kG*k[5mC]*dA*dT*dT*dA*dG*dA*dG*dA*d[5mC]*d[5mC]*kT*k[5mC]*kA) [compound 830141] ?
Result: 58
